Molecular target: T1, human VEGF (human, UniProt P15692-4 27-191)
T1 construct: Bought recombinant protein; also called hVEGF; human VEGF-A
T1 sequence (P15692 other isoform, or with tags, fused parts or gaps limits assumed): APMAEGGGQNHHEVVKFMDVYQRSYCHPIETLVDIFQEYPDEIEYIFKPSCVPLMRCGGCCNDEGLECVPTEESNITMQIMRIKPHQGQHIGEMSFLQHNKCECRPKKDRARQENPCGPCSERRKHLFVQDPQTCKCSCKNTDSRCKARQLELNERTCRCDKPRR
Assay: SPR (BIAcore X100), VEGF on CM5 chip, IgG injected, 1:1 Langmuir
Form field: kon (one value per entry).

Binder	kon / M⁻¹ s⁻¹
HF2-2 (antibody, V domains shown) VH: EVQLVESGGGLVQPGGSLRLSCAASRFNMRSHGMQWVRQAPGKGLEYVAGISSDGSWERVGAAVEGRFTISRDDSKNTAYLQMNSLRAEDTAVYYCARDFSTGYGADSIDAWGQGTLVTVSS VL: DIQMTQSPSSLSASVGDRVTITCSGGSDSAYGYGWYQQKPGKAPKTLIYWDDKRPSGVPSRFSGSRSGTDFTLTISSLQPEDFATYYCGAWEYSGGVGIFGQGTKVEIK	1.1e+06
HF2-9 (antibody, V domains shown, also called HF-9) VH: EVQLVESGGGLVQPGGSLRLSCAASMFRIRSHGMQWVRQAPGKGLEYVAGISSDGSWFRVAAAVEGRFTISRDDSKNTAYLQMNSLRAEDTAVYYCARDFSTGYGADSIDAWGQGTLVTVSS VL: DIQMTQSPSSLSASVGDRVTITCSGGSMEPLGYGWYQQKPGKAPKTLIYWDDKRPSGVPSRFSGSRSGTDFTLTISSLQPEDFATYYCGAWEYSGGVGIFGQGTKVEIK	1.7e+06
